Experiment: xn = mol fraction of the nth substance listed, in the solute-free solvent
Conditions: 318.15 K; x2 = 0.2307
EXPERIMENTAL ENDPOINT: solubility (g/100 g solution)

Worked cases, answers included:
Any idea what solubility (g/100 g solution) was measured for CC(C)C(=O)Nc1ccc([N+](=O)[O-])c(C(F)(F)F)c1 + CC(C)O + O ? 5.22

Next entry: O=c1cc(CBr)c2ccccc2[nH]1 + CC(C)O + O 0.173

a: O=c1cc(CBr)c2ccccc2[nH]1 + CCCO + O
b: O=C1C=CC(=O)N1c1ccccc1Br + CC(C)O + O
c: Nc1ncc(Br)nc1Br + CC(C)O + O
Please produce an ascending ranking of these molecules based on solubility (g/100 g solution). Reply format: the labels, ordered as requested. a, c, b

* * *

Test: xn = mol fraction of the nth substance listed, in the solute-free solvent
Conditions: 323.15 K; x2 = 0.5
EXPERIMENTAL ENDPOINT: solubility (g/100 g solution)
# output: bare number, no unit

Worked cases, answers included:
Any idea what solubility (g/100 g solution) was measured for CC(C)C(=O)Nc1ccc([N+](=O)[O-])c(C(F)(F)F)c1 + C1CCOC1 + CC(C)O ? 70.9

Next entry: Cl.NC1CCSC1=O (centres undefined) + CO + CC#N 4.71

Next entry: CC(C)C(=O)Nc1ccc([N+](=O)[O-])c(C(F)(F)F)c1 + CC(C)=O + CC(C)O 71.2

Then this molecule:
Any idea what solubility (g/100 g solution) was measured for CC(C)C(=O)Nc1ccc([N+](=O)[O-])c(C(F)(F)F)c1 + CCOC(C)=O + CC(C)O ? 62.1

* * *

Experiment: xn = mol fraction of the nth substance listed, in the solute-free solvent
Conditions: 298.15 K; x2 = 0.2307
EXPERIMENTAL ENDPOINT: solubility (g/100 g solution)

Worked cases, answers included:
Any idea what solubility (g/100 g solution) was measured for Nc1ncc(Br)nc1Br + CC(C)O + O ? 0.24

Next entry: CC(C)C(=O)Nc1ccc([N+](=O)[O-])c(C(F)(F)F)c1 + CC(C)O + O 2.97

Next entry: O=c1cc(CBr)c2ccccc2[nH]1 + CCCO + O 0.131

a: O=c1cc(CBr)c2ccccc2[nH]1 + CC(C)O + O
b: O=C1C=CC(=O)N1c1ccccc1Br + CC(C)O + O
Consider a and b . Which of these has its solubility (g/100 g solution) at a higher number? Reply briefly: the label of your chosen item. b
(b: 6.18, a: 0.0971)

* * *

Assay: xn = mol fraction of the nth substance listed, in the solute-free solvent
Details: 323.15 K; x2 = 0.3698
EXPERIMENTAL ENDPOINT: solubility (g/100 g solution)

Any idea what solubility (g/100 g solution) was measured for CC(C)C(=O)Nc1ccc([N+](=O)[O-])c(C(F)(F)F)c1 + CCO + O ? 10.2

I: Nc1ncc(Br)nc1Br + CCO + O
II: Nc1cc(-c2ccncc2)c[nH]c1=O + CCO + O
III: O=C1C=CC(=O)N1c1ccccc1Br + CCO + O
// sort entries: solubility (g/100 g solution), high to low Reply format: the labels, ordered as requested. III, I, II
(III: 18.8, I: 0.798, II: 0.023)
